Origin of measurements: patent US10654939

# maps each entry to its EC50
Target: T1, rhesus CD40 expressed on HEK293A cells (rhesus monkey, UniProt P25942 21-277 (human entry))
T1 construct: also called HEK293A/rhesusCD40
T1 chain: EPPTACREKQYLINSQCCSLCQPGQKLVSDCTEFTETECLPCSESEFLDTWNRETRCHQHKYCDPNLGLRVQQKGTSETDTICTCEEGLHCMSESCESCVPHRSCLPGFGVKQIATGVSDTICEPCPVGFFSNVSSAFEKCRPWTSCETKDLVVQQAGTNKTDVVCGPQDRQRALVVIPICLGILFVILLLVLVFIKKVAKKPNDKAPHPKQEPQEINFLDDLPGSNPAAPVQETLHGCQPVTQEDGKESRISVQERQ
Assay: FACS, HEK293A/rhesusCD40 cells
Procedure: Example 5 Mouse Anti-CD40 Monoclonal Antibodies Bound to Human and Rhesus CD40 Expressed on HEK293A Cells To further determine whether anti-CD40 antibodies bound to human, monkey or mouse CD40 expressed on HEK293A cells, a cell-based binding assay by FACS was performed using the HEK293A cells stably overexpressing human, monkey or mouse CD40 as generated in Example 1, respectively. […]

binder: 142F7 (mouse monoclonal antibody) (antibody, V domains shown) VH: EVQLEQSGAELVRPGTSVKVSCKASGYAFTNYLIEWGIQRPGQGLEWIGVINPGTGGTNYNEKFKDKATLTTDKSSSTAYMQLSSLTSDDSAVYFCARGGSGFAYWGQGTLVTVSA VL: DIVLTQTTSSLSASLGDRVTISCRASQDINNYLNWYQQKPDGTVKLLIYYTSRLHSGVPSRFSGSGSGTDYSLTISNLEQEDIATYFCQQGNTLPWTFGGGTKLEIK
EC50, µg/mL: 0.0807

binder: 16A6 (mouse monoclonal antibody) (antibody, V domains shown) VH: EVQLEQSGPGLVKPSQSLSLTCSVTGYSITTNYHWNWIRQFPGNKLEWMGYIKYDGSNNYNPSLKNRISITRDTSKNQFFLKLNSVTTEDTATYYCARLDYWGQGTSVTVSS VL: DIVLTQSTLSLSVSLGDQASISCRSSQSLENSNGNTFLNWFLQKPGQSPQLLIYKVSNRFSGVLDRFSGTGSGTDLTLTISRVEAEDLGVYFCLQVTHVPFTFGSGTKLEIK
EC50, µg/mL: 0.044

binder: 7B4 (mouse monoclonal antibody) (antibody, V domains shown) VH: EVQLQESGPGLVKPSQSLSLTCSVTGYSITTNYYWNWIRQFPGNKLEWMGYIKYDGSNNYNPSLKNRISITRDTSKNQFFLKLNSVTTEDTATYYCARLDYWGQGTSVTVSS VL: DIVLTQSPLSLPVSLGDQASISCRSSQSLENSNGNTFLNWFLQKPGQSPQLLIYKVSNRFSGVLDRFSGTGSGTDFTLTISRVEAEDLGVYFCLQVTHVPFTFGSGTKLEIK
EC50, µg/mL: 0.0159
